# R-SAT Erα % Eff values compiled below
Molecular target: ERα (Homo sapiens)
Sequence (P03372 1-595): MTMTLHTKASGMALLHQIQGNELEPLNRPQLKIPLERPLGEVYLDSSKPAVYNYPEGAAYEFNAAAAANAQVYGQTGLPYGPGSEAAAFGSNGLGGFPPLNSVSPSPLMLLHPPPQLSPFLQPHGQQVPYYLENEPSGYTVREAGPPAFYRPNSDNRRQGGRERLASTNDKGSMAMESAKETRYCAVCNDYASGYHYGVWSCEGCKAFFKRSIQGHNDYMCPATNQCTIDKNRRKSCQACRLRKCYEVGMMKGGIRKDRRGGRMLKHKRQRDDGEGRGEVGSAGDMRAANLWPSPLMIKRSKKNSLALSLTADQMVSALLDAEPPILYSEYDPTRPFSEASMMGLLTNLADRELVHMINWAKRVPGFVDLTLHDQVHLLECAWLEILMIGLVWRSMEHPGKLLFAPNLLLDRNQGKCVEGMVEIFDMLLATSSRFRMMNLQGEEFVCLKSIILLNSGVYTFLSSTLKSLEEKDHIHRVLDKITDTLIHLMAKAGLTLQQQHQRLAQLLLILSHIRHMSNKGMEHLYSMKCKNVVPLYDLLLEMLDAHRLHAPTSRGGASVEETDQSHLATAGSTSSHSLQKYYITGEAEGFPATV
Assay: R-SAT functional assay, ERα
Format: cell-based
Design: expressed in transfected cells; host or cells: NIH-3T3 fibroblasts, transient transfection
Details: NIH-3T3 cells
reported metric: R-SAT Erα % Eff (%)

[[record]]
smi = "Oc1ccc(C2(c3ccccc3Cl)CCC(F)(F)CC2)cc1F"
unit_tag = "%"
value_measured = 145

[[record]]
smi = "Oc1ccc(C2(c3ccccc3Cl)CCCCC2)cc1"
unit_tag = "%"
value_measured = 48

[[record]]
smi = "Oc1ccc(C2(c3ccccc3Cl)CCCCC2)cc1F"
unit_tag = "%"
value_measured = 58

[[record]]
smi = "Oc1ccc(C2(c3cccc(F)c3Cl)CCCCC2)cc1"
unit_tag = "%"
value_measured = 45

[[record]]
smi = "Oc1ccc(C2(c3ccccc3Cl)CCC(F)(F)CC2)cc1"
unit_tag = "%"
value_measured = 74

[[record]]
smi = "Oc1ccc(C2(c3ccccc3F)CCC(F)(F)CC2)cc1"
unit_tag = "%"
value_measured = 62

[[record]]
smi = "Oc1ccc(C2(c3ccccc3)CCCCC2)cc1"
unit_tag = "%"
value_measured = 42

[[record]]
smi = "Oc1ccc(C2(c3ccccc3F)CCC(F)(F)CC2)cc1F"
unit_tag = "%"
value_measured = 100

[[record]]
smi = "Oc1ccc(C2(c3ccccc3F)CCCCC2)cc1"
unit_tag = "%"
value_measured = 29

